# targetOrTestSystem: Glycylpeptide N-tetradecanoyltransferase (Plasmodium falciparum (isolate 3D7), UniProt Q8ILW6)
# protocolText: Inhibition of Plasmodium falciparum N-myristoyltransferase by CPM fluorescence assay
pKi: −log10 of the molar value.
The threshold is inclusive: pKi of exactly 7 counts as y; values below receive n.

{"columns": ["compound", "groupLabel"],
 "data": [
  ["c1ccc(Cc2n[nH]c(-c3sc4ccccc4c3OC3CCNCC3)n2)cc1", "n"],
  ["COC(c1ccccc1)c1nnc(-c2sc3ccccc3c2OC2CCNCC2)o1 (racemic)", "n"],
  ["Cc1nn(C)c(C)c1Cc1nnc(-c2sc3ccccc3c2OC2CCNCC2)o1", "y"]
]}

## Task Entry COc1cc(CCOC(=O)c2sc3ccccc3c2OC2CCNCC2)cc(OC)c1 : is its pKi no less than 7?
## Result y

## Task Entry O=C(NCCCc1ccccc1)c1sc2ccccc2c1OC1CCNCC1 : is its pKi no less than 7?
## Result n

* * *

# Tested on: Plasmodium falciparum
# protocolText: Antimicrobial activity against late stage trophozoite form of Plasmodium falciparum 3D7 infected in RBCs after 48 hrs by SYBR green viability assay
# Format: functional, organism-based
# testContext: 3D7, 96 h, in the assay text read “after 96 hrs” for “after 48 hrs”
measurementLabel: pEC50
Numbers only, as −log10 of the molar value.

Return reported pEC50 values for all items listed beneath this line.
1. Cc1n[nH]c(C)c1Cc1nnc(-c2sc3ccccc3c2OC2CCNCC2)o1
2. COc1cc(CCOC(=O)c2sc3ccccc3c2OC2CCNCC2)cc(OC)c1
3. COc1cc(Cc2noc(-c3sc4ccccc4c3OC3CCNCC3)n2)cc(OC)c1

## Result
5.70
5.85
5.60

* * *

# protocolText: Inhibition of human N-myristoyltransferase using H-Gly-Ser-Asn-Lys-Ser-Lys-Pro-Lys-NH2 as substrate by CPM fluorescence assay
Please respond with reported Ki for every item in the list.
One number for each entry, in µM.

{"columns": ["molecule", "units", "resultNumber"],
 "data": [
  ["Cc1noc(C)c1Cc1nnc(-c2sc3ccccc3c2OC2CCNCC2)o1", "µM", 1.05],
  ["c1ccc(C2(c3nnc(-c4sc5ccccc5c4OC4CCNCC4)o3)CC2)cc1", "µM", 0.976],
  ["CC(C)(c1ccccc1)c1nnc(-c2sc3ccccc3c2OC2CCNCC2)o1", "µM", 1.55],
  ["c1ccc(CCc2noc(-c3sc4ccccc4c3OC3CCNCC3)n2)cc1", "µM", 1.54],
  ["O=C(OCCc1ccccc1)c1sc2ccccc2c1OC1CCNCC1", "µM", 10.4]
]}

Return reported Ki values for all items listed beneath this line.
1. c1ccc(C(c2ccccc2)c2nnc(-c3sc4ccccc4c3OC3CCNCC3)o2)cc1
2. Cc1noc(C)c1CCc1nnc(-c2sc3ccccc3c2OC2CCNCC2)o1
3. Clc1cccc(Cc2noc(-c3sc4ccccc4c3OC3CCNCC3)n2)c1
4. COc1cc(Cc2nc(-c3sc4ccccc4c3OC3CCNCC3)no2)cc(OC)c1
5. c1ccc(Cc2noc(-c3sc4ccccc4c3OC3CCNCC3)n2)cc1
6. FC(F)(c1ccccc1)c1nnc(-c2sc3ccccc3c2OC2CCNCC2)o1
7. Cc1nn(C)c(C)c1Cc1nnc(-c2sc3ccccc3c2OC2CCNCC2)o1

## Result
[1.92, 0.709, 0.871, 0.05, 0.788, 2.77, 0.06]

* * *

Please respond with reported Ki for every item in the list.
# targetOrTestSystem: Glycylpeptide N-tetradecanoyltransferase (Plasmodium falciparum (isolate 3D7), UniProt Q8ILW6)
# Sequence (Q8ILW6 whole entry): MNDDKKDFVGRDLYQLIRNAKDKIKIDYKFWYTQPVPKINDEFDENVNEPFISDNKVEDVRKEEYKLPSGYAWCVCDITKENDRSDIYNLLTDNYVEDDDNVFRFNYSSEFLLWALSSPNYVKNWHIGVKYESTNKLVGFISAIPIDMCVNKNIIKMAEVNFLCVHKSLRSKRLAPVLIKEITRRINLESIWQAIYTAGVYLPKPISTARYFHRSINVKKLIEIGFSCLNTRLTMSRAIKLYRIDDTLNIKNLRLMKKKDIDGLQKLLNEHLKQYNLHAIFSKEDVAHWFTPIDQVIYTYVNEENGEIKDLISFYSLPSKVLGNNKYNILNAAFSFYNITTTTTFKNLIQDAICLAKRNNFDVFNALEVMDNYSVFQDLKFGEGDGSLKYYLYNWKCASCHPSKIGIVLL
# protocolText: Inhibition of Plasmodium falciparum N-myristoyltransferase by CPM fluorescence assay
Numbers only, in nM.

// below: answered molecules
{"columns": ["entrySmiles", "units", "Ki"],
 "data": [
  ["c1ccc(Cc2nnc(-c3sc4ccccc4c3OC3CCNCC3)o2)cc1", "nM", 77],
  ["COc1cccc(CCOC(=O)c2sc3ccccc3c2OC2CCNCC2)c1", "nM", 120],
  ["c1ccc(C2(c3nnc(-c4sc5ccccc5c4OC4CCNCC4)o3)CC2)cc1", "nM", 98],
  ["Cc1noc(C)c1Cc1nnc(-c2sc3ccccc3c2OC2CCNCC2)o1", "nM", 113],
  ["COc1cc(Cc2noc(-c3sc4ccccc4c3OC3CCNCC3)n2)cc(OC)c1", "nM", 15]
]}

Return reported Ki values for all items listed beneath this line.
1. O=C(OCCOc1ccccc1)c1sc2ccccc2c1OC1CCNCC1
2. COc1cc(Cc2nc(-c3sc4ccccc4c3OC3CCNCC3)no2)cc(OC)c1
3. COc1cccc(Cc2nnc(-c3sc4ccccc4c3OC3CCNCC3)o2)c1

## Result
1130
15
33

* * *

# Tested on: Plasmodium falciparum
# protocolText: Antimicrobial activity against late stage trophozoite form of Plasmodium falciparum 3D7 infected in RBCs after 48 hrs by SYBR green viability assay
# Type: functional, organism-based
# testContext: 3D7, 96 h, in the assay text read “after 96 hrs” for “after 48 hrs”
measurementLabel: pEC50
Numbers only, as −log10 of the molar value.

{"columns": ["compound", "resultNumber"],
 "data": [
  ["Clc1cccc(Cc2noc(-c3sc4ccccc4c3OC3CCNCC3)n2)c1", 5.92],
  ["COc1cccc(Cc2noc(-c3sc4ccccc4c3OC3CCNCC3)n2)c1", 5.84],
  ["OC(c1ccccc1)c1nnc(-c2sc3ccccc3c2OC2CCNCC2)o1 (racemic)", 5.13]
]}

Return reported pEC50 values for all items listed beneath this line.
1. Cc1noc(C)c1Cc1nnc(-c2sc3ccccc3c2OC2CCNCC2)o1
2. COc1cccc(Cc2nc(-c3sc4ccccc4c3OC3CCNCC3)no2)c1
3. COc1cc(Cc2nc(-c3sc4ccccc4c3OC3CCNCC3)no2)cc(OC)c1
4. c1ccc(Cc2noc(-c3sc4ccccc4c3OC3CCNCC3)n2)cc1

## Result
[5.30, 5.49, 5.46, 5.64]

* * *

# protocolText: Inhibition of human N-myristoyltransferase using H-Gly-Ser-Asn-Lys-Ser-Lys-Pro-Lys-NH2 as substrate by CPM fluorescence assay
measurementLabel: Ki (nM)
Give bare numbers, in nM.

{"columns": ["compound", "units", "Ki"],
 "data": [
  ["CC(c1ccccc1)c1nnc(-c2sc3ccccc3c2OC2CCNCC2)o1 (racemic)", "nM", 2070],
  ["O=C(OCCCc1ccccc1)c1sc2ccccc2c1OC1CCNCC1", "nM", 1160],
  ["Cc1n[nH]c(C)c1CCc1nnc(-c2sc3ccccc3c2OC2CCNCC2)o1", "nM", 2250]
]}

Return reported Ki values for all items listed beneath this line.
1. COc1cccc(Cc2nnc(-c3sc4ccccc4c3OC3CCNCC3)o2)c1
2. c1ccc(Cc2n[nH]c(-c3sc4ccccc4c3OC3CCNCC3)n2)cc1
3. COC(c1ccccc1)c1nnc(-c2sc3ccccc3c2OC2CCNCC2)o1 (racemic)
4. O=C(OCCOc1ccccc1)c1sc2ccccc2c1OC1CCNCC1

## Result
1: 428; 2: 893; 3: 3950; 4: 1870

* * *

# protocolText: Inhibition of human N-myristoyltransferase using H-Gly-Ser-Asn-Lys-Ser-Lys-Pro-Lys-NH2 as substrate by CPM fluorescence assay
pKi: −log10 of the molar value.
measurementLabel: pKi

// below: answered compounds
{"columns": ["entrySmiles", "pKi"],
 "data": [
  ["O=C(NCCCc1ccccc1)c1sc2ccccc2c1OC1CCNCC1", "< 4.00"],
  ["O=C(NCCOc1ccccc1)c1sc2ccccc2c1OC1CCNCC1", "< 4.00"]
]}

Let's switch to this compound now.
## Task Determine its reported pKi: O=C(NCCc1ccccc1)c1sc2ccccc2c1OC1CCNCC1
## Result < 4.00
